Target: ATR (Homo sapiens, UniProt Q13535)
Construct: made in house; host or cells: 293T cells, transient transfection with pBJF-FRPwt, anti-FLAG M2 immunoprecipitate
Sequence (Q13535 whole entry): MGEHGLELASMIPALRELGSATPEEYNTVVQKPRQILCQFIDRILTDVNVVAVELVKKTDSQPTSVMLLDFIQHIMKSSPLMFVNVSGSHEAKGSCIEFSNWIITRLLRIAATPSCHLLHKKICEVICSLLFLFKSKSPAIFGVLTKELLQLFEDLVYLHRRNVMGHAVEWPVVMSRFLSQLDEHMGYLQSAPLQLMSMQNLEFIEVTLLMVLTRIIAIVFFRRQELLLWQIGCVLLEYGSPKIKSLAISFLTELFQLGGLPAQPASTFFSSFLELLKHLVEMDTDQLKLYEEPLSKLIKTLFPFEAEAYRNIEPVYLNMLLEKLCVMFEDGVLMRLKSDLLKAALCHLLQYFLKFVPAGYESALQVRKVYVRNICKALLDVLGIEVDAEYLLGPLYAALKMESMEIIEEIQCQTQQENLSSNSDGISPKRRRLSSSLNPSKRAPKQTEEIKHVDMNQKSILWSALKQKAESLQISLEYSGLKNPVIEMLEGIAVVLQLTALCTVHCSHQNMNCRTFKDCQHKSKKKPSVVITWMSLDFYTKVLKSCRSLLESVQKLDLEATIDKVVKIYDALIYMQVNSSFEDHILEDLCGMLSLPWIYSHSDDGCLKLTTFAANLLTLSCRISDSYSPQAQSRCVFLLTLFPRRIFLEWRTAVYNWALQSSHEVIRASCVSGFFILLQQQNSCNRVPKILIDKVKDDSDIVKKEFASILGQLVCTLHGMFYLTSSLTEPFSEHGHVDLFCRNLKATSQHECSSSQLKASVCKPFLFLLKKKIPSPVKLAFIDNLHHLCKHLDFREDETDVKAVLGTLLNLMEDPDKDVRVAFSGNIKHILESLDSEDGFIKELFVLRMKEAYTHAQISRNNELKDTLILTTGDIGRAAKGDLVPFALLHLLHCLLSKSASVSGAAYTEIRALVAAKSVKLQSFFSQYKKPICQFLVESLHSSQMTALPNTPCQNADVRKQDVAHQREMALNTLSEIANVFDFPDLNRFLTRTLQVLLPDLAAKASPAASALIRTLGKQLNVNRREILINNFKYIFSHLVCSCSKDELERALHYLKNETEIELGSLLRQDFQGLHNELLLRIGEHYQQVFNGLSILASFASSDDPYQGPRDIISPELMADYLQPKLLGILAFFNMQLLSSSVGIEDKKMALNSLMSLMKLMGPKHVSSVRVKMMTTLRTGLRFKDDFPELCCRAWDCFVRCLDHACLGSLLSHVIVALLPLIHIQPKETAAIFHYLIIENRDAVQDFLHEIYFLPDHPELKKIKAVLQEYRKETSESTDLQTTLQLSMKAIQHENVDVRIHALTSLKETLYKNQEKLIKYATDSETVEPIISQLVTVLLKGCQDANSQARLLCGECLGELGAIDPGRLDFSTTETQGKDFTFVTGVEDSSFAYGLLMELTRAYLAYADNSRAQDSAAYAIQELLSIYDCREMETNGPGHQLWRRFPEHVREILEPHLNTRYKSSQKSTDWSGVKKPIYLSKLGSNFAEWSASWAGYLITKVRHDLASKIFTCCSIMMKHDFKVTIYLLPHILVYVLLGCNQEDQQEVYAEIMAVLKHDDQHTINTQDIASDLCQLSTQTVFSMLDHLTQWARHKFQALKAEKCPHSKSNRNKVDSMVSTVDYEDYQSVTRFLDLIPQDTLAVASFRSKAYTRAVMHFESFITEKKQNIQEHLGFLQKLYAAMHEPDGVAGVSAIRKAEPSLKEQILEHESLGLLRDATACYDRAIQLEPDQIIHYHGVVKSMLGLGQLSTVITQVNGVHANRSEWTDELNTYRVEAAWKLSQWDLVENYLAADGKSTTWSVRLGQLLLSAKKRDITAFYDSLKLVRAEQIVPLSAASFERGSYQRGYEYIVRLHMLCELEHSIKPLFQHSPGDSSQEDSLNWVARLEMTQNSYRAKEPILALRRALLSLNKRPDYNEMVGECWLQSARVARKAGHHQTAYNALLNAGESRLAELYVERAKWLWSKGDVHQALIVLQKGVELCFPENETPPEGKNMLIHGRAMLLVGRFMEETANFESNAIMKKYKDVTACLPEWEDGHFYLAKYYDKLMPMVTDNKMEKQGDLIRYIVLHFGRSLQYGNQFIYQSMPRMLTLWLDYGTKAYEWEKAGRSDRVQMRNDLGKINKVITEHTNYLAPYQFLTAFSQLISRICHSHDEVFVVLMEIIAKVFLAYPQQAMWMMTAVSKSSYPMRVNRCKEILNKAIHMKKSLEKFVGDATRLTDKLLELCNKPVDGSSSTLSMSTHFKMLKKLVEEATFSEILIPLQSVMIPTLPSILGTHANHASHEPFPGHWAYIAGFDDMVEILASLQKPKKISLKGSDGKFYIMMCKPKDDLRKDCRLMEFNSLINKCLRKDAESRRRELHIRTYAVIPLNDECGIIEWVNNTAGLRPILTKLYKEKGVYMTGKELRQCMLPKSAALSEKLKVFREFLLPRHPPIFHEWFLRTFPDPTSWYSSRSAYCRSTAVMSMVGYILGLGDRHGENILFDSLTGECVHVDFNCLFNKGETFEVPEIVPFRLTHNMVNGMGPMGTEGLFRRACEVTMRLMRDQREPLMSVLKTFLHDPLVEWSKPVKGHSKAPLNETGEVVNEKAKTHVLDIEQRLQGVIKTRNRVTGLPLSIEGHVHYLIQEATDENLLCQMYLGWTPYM
Assay: In vitro kinase assay, ATR with GST-peptide / GST-fusion substrates
Type: biochemical
Details: GST-peptide substrate; relative to the p53ser15 site
Where no end group is shown, it is not given here.
RECORDED ENDPOINT: Relative Phosphorylation (%) ATR

Some solved entries appear below for comparison.
SUBSTANCE: β3A Adaptin: GST-peptide ELKPVLSQG (SEQ ID NO:43), S1092 (not fully specified (N-terminus); also: GST fusion; listed as Homo sapiens)
OBSERVED RESULT: 22

SUBSTANCE: BRCA1 (SQ3): GST-peptide SSEYPISQNPEGLS (SEQ ID NO:34), S1466 (also: GST fusion)
OBSERVED RESULT: 33

SUBSTANCE: RAD17 (SQ1): GST-peptide TWSLPLSQDSASEL (SEQ ID NO:18), S646 (not fully specified (N-terminus); also: GST fusion)
OBSERVED RESULT: 733

SUBSTANCE: CUT1: GST-peptide GASPVLSQGVDPRS (SEQ ID NO:36), S1615 (also: GST fusion)
OBSERVED RESULT: 20

SUBSTANCE: PI-3K: GST-peptide DLLMYLSQLVQALK (SEQ ID NO:26), S397 (also: GST fusion)
OBSERVED RESULT: 150

SUBSTANCE: BRCA1 (SQ1): GST-peptide SASLFSSQCSELED (SEQ ID NO:32), S1298 (also: GST fusion)
OBSERVED RESULT: 38

P = BRCA2: GST-peptide KVSPYLSQFQQDKQ (SEQ ID NO:29), S2156 (also: GST fusion)
Q = ATM S440: GST-peptide PLLMILSQLLPQQR (SEQ ID NO:24), S440 of ATM (also: GST fusion)
Inquiry: Which of these two has the smaller recorded Relative Phosphorylation (%) ATR: P or Q ? Record your answer as the label of the chosen record.
Reply text: Q
(Q: 55%, P: 132%)
